measurementNotes: chemical genetic growth profiling, strain panel (AID 1159580);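 also: tested at 20 µM; growth read once vehicle control cultures reached saturation at 30 °C; 1 = growth at the plate median or of vehicle wells; lower values mean less growth of the strain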
condition: S. cerevisiae deletion strains, growth OD, locus YDR318W, strain mcm21
Out of some 5,500 compounds screened, about 2,000 (36%) were called active. Not shown: some 18% with an inconclusive outcome. Rule as the data show it: active = normalized growth mostly below about 0.91 (no sharp cut-off); inconclusive = no clear call, values can overlap the other calls; inactive = mostly above about 0.92. The list shows a part of the results.
// one of yes (1) = active, no (0) = inactive, no free text

{"columns": ["compound", "label"],
 "data": [
  ["COc1ccc2cc3[n+](cc2c1OC)CCc1cc2c(cc1-3)OCO2", "yes (1)"]
]}

In: I would be grateful if you could indicate the recorded call for CC1(C)O[C@@H]2CC3C4C[C@H](F)C5=CC(=O)C=CC5(C)C4C(O)CC3(C)[C@]2(C(=O)CO)O1 (stereo partly drawn) .
Out: no (0)

In: For CCC/C=C/C=C/[C@@H]1C[C@@H](O)[C@@H](O)C(=O)[C@H]1C=O , what call appears in the results of this test?
Out: no (0)

---

measurementNotes: chemical genetic growth profiling, strain panel (AID 1159580);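 also: tested at 20 µM; growth read once vehicle control cultures reached saturation at 30 °C; 1 = growth at the plate median or of vehicle wells; lower values mean less growth of the strain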
condition: S. cerevisiae deletion strains, growth OD, locus YKL101W, strain HSL1
About 2,000 (36%) of roughly 5,500 compounds were called active. Roughly 18% stayed inconclusive and do not appear here. Rule as the data show it: active = normalized growth mostly below about 0.91 (no sharp cut-off); inconclusive = no clear call, values can overlap the other calls; inactive = mostly above about 0.92. Some of the results follow.
Hi! Could you answer with just one of these? active, inactive

Below, 3 compounds whose answers are already recorded.
{"columns": ["compound", "label"],
 "data": [
  ["N=c1ccc2nc3c(Cl)c4c(c(Cl)c3oc-2c1S(=O)(=O)O)Nc1ccc(N)c(S(=O)(=O)O)c1O4", "inactive"],
  ["O=C1Nc2ccccc2/C1=N/N=C\\c1ccccc1Cl", "inactive"],
  ["Cc1nc(-c2ccc(C(F)(F)F)cn2)[nH]c(=O)c1Cl", "inactive"]
]}

In: Look up the recorded call for CCC(C)Cn1c(Sc2ncc([N+](=O)[O-])s2)n[nH]c1=O (stereo unspecified) in this test.
Out: inactive

In: Name the outcome recorded for N#CCCCCOc1ccc2c(=O)cc(-c3ccccc3)oc2c1 in the assay.
Out: inactive

In: Which outcome was entered for the compound Fc1ccc(N/N=C\Cc2nnnn2-c2ccccc2)c(F)c1 in this test?
Out: active

In: Any idea what this test logged for CCn1nc(C)cc1-c1nnc(Sc2ncc([N+](=O)[O-])s2)n1C ?
Out: inactive

In: Assay outcome for Cc1csc2ncnc(N/N=C\c3ccccc3Cl)c12 : what was it?
Out: inactive

In: Returns: the outcome recorded for Clc1ccc(-c2csc(Nc3ccccc3)n2)s1 in this assay.
Out: active

In: Would you mind telling me which call this test gave Cc1ccc(C(O)(c2ccccc2)c2ccccc2)c2ccccc12 ?
Out: inactive

In: In this assay, the call recorded for COc1ccc(C2CC(c3ccccc3)=Nc3ccccc3S2)cc1OC (stereo unspecified) was what?
Out: inactive

---

measurementNotes: chemical genetic growth profiling, strain panel (AID 1159580);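 also: tested at 20 µM; growth read once vehicle control cultures reached saturation at 30 °C; 1 = growth at the plate median or of vehicle wells; lower values mean less growth of the strain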
condition: S. cerevisiae deletion strains, growth OD, locus YNR030W, strain Alg12
The whole screen tested about 5,500 compounds, of which about 2,000 (36%) were called active. Not shown: some 18% with an inconclusive outcome. No stated cut-off is given here; in the data, active means normalized growth mostly below about 0.91 (no sharp cut-off); inconclusive means no clear call, values can overlap the other calls; inactive means mostly above about 0.92. This is one part of the list.
Tick one outcome: 1 for active, -1 for inactive

The examples below pair each entry with its known result.
{"columns": ["compound", "label"],
 "data": [
  ["C=CCn1c(Sc2ncc([N+](=O)[O-])s2)n[nH]c1=O", 1],
  ["Cc1cc(C(F)(F)F)c(C#N)c(=O)[nH]1", -1],
  ["O=C1CCCc2c1c1ccccc1n2Cc1ccccc1", -1],
  ["CCOC(=O)c1ccc2oc3ccc(O)cc3c(=O)c2c1", -1]
]}

In: What classification did Cc1ccc(OCC(=O)NN)c2c1CCC2 end up with in this test?
Out: -1

In: Entry O=C(O)c1coc2ccccc2c1=O : call = ?
Out: -1

In: Call for entry Cc1c(C)c(C)c(CO)c(C)c1C :
Out: -1

In: Kindly provide the recorded test outcome for the following compound: COC(=O)c1ccc(Cl)cc1N(Cc1ccccc1)S(C)(=O)=O
Out: -1

In: Hey, what did the test say about CCCCCn1c(Sc2ncc([N+](=O)[O-])s2)n[nH]c1=O ?
Out: 1

In: Could you please tell me the result logged for Cc1ccc(COc2ccc(C)nc2[N+](=O)[O-])cc1 in this assay?
Out: 1

In: // return assay outcome for CCOC(=O)CSc1nnc(-c2cc(C(C)(C)C)nn2Cc2cccc(C)c2)n1C1CCCCC1
Out: -1

In: Can you look up the reported call for COC(=O)C1=C(Nc2ccc(Cl)cc2)CSC1 for me?
Out: 1

Reference source: PubChem BioAssay AID1159580
